Consider the following compounds and their measured CC50 readings.
tested on: HSC-3 squamous cell carcinoma cells; assay: Cytotoxicity (MTT, 48 h) against HSC-3 cells; assay type: cell-based, human; conditions: Homo sapiens, HSC-3; 48 h, MTT, mean ± S.D. of triplicate
Quick reminder: number only, in nM, skip the unit.

Examples with answers:
- O=C1C(=Cc2ccccc2)CNCC1=Cc1ccccc1: 800
- O=C1/C(=C/c2ccc(Cl)cc2)CN(C(=O)C(Cl)Cl)C/C1=C\c1ccc(Cl)cc1: 190
- COc1ccc(/C=C2\CN(C(=O)C(Cl)Cl)C/C(=C\c3ccc(OC)c(OC)c3)C2=O)cc1OC: 280

# next compound below
Given the entry CC(=O)N1C/C(=C\c2ccccc2)C(=O)/C(=C/c2ccccc2)C1 , report its measured CC50.
2250
